target: PhKAT (Pyrococcus horikoshii); assay: Spectrophotometric titration of PhKAT with PLP (absorbance change at 360 nm, 2-site binding model with hill slopes); parameters: species or system Pyrococcus horikoshii OT3; settings: 10 µM PhKAT, 25°C, pH 7.5, read-out: Kd1 (dissociation constant for PLP, first binding site)
MEASURE: Kd
Quick note: number first, unit second.

Data point: Cc1ncc(COP(=O)(O)O)c(C=O)c1O [PLP, Pyridoxal phosphate] ; Kd = 25.5 µM

====

molecular target: PhKAT (Pyrococcus horikoshii, UniProt O57946); experiment: Spectrophotometric titration of PhKAT with PLP (absorbance change at 360 nm, 2-site binding model with hill slopes); design: species or system Pyrococcus horikoshii OT3; settings: 10 µM PhKAT, 25°C, pH 7.5, read-out: Kd2 (dissociation constant for PLP, second binding site)
Sequence (O57946 entry or part of it): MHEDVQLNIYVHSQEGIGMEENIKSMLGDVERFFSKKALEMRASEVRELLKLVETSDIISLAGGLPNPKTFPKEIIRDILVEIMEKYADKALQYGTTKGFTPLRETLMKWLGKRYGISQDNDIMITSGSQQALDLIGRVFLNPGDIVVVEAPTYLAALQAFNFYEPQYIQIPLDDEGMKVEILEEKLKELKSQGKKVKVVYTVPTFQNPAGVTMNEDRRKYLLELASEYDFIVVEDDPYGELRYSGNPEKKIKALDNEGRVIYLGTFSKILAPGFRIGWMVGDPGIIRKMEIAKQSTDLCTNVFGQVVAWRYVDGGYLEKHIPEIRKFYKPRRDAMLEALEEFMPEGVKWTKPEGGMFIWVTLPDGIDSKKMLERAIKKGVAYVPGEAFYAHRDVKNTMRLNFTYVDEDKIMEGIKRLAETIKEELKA
MEASURE: Kd (nM)
Your answer should be a plain number; it is taken to be in nM.

Data point: Cc1ncc(COP(=O)(O)O)c(C=O)c1O [PLP, Pyridoxal phosphate] ; Kd = 1770
